- EXPERIMENTAL_SYSTEM: wild-type human cardiac sodium channel, hNav1.5 (Homo sapiens)
- Sequence (Q14524 whole entry): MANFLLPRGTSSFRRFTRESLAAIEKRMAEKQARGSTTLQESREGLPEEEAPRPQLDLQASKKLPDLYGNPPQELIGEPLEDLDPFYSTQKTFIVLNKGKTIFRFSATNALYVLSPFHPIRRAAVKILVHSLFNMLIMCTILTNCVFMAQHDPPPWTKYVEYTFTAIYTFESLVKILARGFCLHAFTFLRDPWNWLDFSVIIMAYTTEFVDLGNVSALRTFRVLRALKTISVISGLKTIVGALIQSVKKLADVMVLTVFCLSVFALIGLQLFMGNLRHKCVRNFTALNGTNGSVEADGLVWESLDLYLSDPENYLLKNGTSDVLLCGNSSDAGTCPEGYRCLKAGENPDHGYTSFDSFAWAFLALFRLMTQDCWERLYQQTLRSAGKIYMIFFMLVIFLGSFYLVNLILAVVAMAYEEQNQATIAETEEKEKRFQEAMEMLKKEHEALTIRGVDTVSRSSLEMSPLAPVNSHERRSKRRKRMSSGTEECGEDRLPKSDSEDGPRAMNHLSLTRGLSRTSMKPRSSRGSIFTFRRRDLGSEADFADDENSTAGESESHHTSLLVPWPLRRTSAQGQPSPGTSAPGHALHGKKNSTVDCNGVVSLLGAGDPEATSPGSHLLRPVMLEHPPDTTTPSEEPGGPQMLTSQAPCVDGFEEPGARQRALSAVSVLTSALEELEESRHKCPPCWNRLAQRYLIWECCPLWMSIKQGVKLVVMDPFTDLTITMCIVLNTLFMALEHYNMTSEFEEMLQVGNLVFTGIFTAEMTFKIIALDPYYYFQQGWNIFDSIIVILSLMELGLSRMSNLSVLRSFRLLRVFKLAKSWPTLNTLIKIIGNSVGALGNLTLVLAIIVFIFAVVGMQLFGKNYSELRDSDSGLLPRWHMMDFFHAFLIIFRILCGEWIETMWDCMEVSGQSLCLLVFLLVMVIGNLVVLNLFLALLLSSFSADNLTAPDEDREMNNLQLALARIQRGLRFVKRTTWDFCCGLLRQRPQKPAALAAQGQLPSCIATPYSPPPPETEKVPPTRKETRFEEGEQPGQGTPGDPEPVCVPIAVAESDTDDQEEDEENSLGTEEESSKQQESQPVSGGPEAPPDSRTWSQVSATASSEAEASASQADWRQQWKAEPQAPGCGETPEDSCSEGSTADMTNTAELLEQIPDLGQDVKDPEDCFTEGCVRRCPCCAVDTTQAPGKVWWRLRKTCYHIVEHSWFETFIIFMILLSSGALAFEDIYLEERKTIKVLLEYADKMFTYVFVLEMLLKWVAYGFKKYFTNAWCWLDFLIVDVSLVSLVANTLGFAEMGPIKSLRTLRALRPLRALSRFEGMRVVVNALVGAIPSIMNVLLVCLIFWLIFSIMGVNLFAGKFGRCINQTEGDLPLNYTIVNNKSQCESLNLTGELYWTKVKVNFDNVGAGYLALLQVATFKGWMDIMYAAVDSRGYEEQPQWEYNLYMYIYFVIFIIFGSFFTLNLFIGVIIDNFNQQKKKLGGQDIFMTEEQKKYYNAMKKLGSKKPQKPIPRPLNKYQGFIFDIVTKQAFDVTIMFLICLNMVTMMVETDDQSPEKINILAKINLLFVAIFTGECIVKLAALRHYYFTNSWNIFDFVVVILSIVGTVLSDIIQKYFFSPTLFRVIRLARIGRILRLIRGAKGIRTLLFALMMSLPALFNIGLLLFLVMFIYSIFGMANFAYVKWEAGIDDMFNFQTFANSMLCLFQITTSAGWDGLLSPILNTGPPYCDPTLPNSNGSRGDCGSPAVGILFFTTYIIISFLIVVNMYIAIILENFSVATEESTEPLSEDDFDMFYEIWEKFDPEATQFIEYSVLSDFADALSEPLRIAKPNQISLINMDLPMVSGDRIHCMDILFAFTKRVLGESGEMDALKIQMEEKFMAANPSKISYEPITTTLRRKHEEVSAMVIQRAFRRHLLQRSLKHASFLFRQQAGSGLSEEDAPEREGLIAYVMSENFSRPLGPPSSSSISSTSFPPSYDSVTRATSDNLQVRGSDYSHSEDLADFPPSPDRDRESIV
- ASSAY_REMARKS: Late INa screening assay (late sodium current, PatchXpress whole cell patch clamp)
- Assay type: cell-based
- CONDITION_LABEL: compound at 10 μM; read-out: Late INa % blk
Quick list: inhibition at 10 µM per entry.

COMPOUND | OUTPUT_UNIT | inhibition at 10 µM
O=C1CCCC2=C1C(c1cccc3ccccc13)n1nnnc1N2 (centres unmarked) [PT-072] | % | -0.9
COc1cccc(OCc2ccccc2)c1C1C(C(=O)OCc2ccccc2)=C(C)Nc2nnnn21 (centres unmarked) [PT-382] | % | 13.9
CCOC(=O)C1=C(C)NC2=C(C(=O)CCC2)C1c1cccc2ncccc12 (centres unmarked) [PT-140] | % | 6.3
O=C1OCC(O)=C1C(C1=C(O)COC1=O)c1cccc2ccccc12 [PT-222] | % | 15.8
CCOC(=O)C1=C(C)Nc2nnnn2C1c1ccccc1OCc1cccc(C(=O)OC)c1 (centres unmarked) [PT-480] | % | 5.4

* * *

- EXPERIMENTAL_SYSTEM: hERG potassium channel (Homo sapiens)
- Sequence (Q12809 whole entry): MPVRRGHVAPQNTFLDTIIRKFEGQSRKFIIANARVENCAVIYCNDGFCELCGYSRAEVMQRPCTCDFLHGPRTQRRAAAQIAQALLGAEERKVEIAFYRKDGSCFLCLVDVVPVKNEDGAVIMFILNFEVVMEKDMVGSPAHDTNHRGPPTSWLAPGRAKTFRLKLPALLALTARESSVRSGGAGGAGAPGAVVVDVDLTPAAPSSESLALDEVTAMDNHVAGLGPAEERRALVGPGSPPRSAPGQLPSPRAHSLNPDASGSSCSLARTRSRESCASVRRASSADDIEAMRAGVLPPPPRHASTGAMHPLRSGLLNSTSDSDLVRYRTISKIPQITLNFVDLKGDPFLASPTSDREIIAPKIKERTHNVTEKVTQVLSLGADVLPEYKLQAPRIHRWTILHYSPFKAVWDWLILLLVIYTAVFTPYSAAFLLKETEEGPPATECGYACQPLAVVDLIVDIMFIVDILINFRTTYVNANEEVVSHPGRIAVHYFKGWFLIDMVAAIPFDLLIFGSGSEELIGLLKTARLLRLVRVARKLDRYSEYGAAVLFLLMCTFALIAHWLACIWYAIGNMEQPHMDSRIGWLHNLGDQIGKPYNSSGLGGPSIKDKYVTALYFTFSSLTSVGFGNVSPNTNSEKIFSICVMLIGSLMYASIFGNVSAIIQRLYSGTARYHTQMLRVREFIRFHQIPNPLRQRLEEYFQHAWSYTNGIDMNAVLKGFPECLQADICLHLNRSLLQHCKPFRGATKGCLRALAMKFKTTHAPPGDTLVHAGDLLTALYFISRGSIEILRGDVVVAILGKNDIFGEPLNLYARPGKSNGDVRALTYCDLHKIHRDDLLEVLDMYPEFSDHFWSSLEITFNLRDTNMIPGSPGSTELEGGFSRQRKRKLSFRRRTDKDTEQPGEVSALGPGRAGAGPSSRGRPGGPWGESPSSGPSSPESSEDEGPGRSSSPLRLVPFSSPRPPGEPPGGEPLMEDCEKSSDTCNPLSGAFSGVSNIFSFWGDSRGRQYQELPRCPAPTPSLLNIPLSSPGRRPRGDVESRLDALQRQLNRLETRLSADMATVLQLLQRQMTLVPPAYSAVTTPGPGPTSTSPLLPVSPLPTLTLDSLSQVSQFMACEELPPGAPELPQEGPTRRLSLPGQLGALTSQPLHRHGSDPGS
- ASSAY_REMARKS: hERG screening assay (PatchXpress patch clamp, CHO cell line)
- CONDITION_LABEL: 1 μM
Quick list: hERG Patch Clamp hERG % blk per entry.

MOLECULE | EXPERIMENTAL_SYSTEM | hERG Patch Clamp hERG % blk (%)
CCOC(=O)C1=C(C)NC(C)=C(C(=O)OCC)C1c1ccccc1Br [PT-430] | hERG potassium channel (Homo sapiens) | 10.0
CCOC(=O)C1=C(C)Nc2nnnn2C1c1ccc2ccccc2c1 (stereo not shown) [PT-008] | hERG potassium channel (Homo sapiens) | 10.0
CCOC(=O)C1=C(C)NC(C)=C(C(=O)OCC)C1c1ccc(CC)s1 [PT-113] | hERG potassium channel (Homo sapiens) | 11.0
CC1=C(C(=O)OCc2ccccc2)[C@@H](c2ccccc2-c2ccc(C)o2)n2nnnc2N1 [PT-235] | hERG potassium channel (Homo sapiens) | 10.0
CCOC(=O)C1=C(C(C)C)NC(C(C)C)=C(C(=O)OCC)C1c1ccc(Br)s1 [PT-183] | hERG potassium channel (Homo sapiens) | 10.0
COc1ccc2ccccc2c1C1C(C(=O)OCc2ccccc2)=C(C)Nc2nnnn21 (stereo not shown) [PT-030] | hERG potassium channel (Homo sapiens) | 10.5
CCOC(=O)C1=C(C)NC2=C(C(=O)CCC2)C1c1ccnc2ccccc12 (stereo not shown) [PT-190] | hERG potassium channel (Homo sapiens) | 10.5
CC1=C(C(=O)OC(C)C)C(c2ccc(Br)s2)C(C(=O)OC(C)C)=C(C)N1 [PT-124] | hERG potassium channel (Homo sapiens) | 11.5
N#CC1=C(N)NC2=C(C(=O)CCC2)C1c1ccc(Br)cc1 (stereo not shown) [PT-095] | hERG potassium channel (Homo sapiens) | 10.0
N#CC1=C(N)OC2=C(C(=O)CCC2)C1c1ccsc1 (stereo not shown) [PT-100] | hERG potassium channel (Homo sapiens) | 10.0
CCOC(=O)C1=C(C)Nc2[nH]nc(C)c2C1c1cccc2ccccc12 (stereo not shown) [PT-074] | hERG potassium channel (Homo sapiens) | 14.0
CCOC(=O)C1=C(C)Nc2nnnn2C1c1cc2ccccc2o1 (stereo not shown) [PT-019] | hERG potassium channel (Homo sapiens) | 10.0
CC1=C(C(=O)OCc2ccccc2)C(c2sc3ccccc3c2C)n2nnnc2N1 (stereo not shown) [PT-044] | hERG potassium channel (Homo sapiens) | 16.5
COc1ccc(C2C(C(=O)OCc3ccccc3)=C(C)Nc3nnnn32)c(C#N)c1 (stereo not shown) [PT-389] | hERG potassium channel (Homo sapiens) | 23.5
CC1=C(C(=O)OCc2ccc(Cn3cccn3)cc2)C(c2cccs2)n2nnnc2N1 (stereo not shown) [PT-280] | hERG potassium channel (Homo sapiens) | 11.5
CCOC(=O)C1=C(C)NC(C)=C(C(=O)OCC)C1c1cc2ccccc2s1 [PT-114] | hERG potassium channel (Homo sapiens) | 20.9
CC1=C(C(=O)OCc2ccccc2)C(c2ccccc2-c2cccc(NS(C)(=O)=O)c2)n2nnnc2N1 (stereo not shown) [PT-348] | hERG potassium channel (Homo sapiens) | 10.0
COc1cc(Cl)ccc1COC(=O)C1=C(C)Nc2nnnn2C1c1c(Cl)cccc1Cl (stereo not shown) [PT-306] | hERG potassium channel (Homo sapiens) | 10.0
CCOC(=O)C1=C(C)Nc2[nH]ncc2C1c1ccccc1Br (stereo not shown) [PT-448] | hERG potassium channel (Homo sapiens) | 10.0

Origin of values: patent US20090012103A1
